In this section, each of the sequences is paired with its reported apparent KD of MS2 coat protein.
Test system: MS2 coat protein
Test: apparent KD of MS2 coat protein; designed switch direction (-1 OFF switch, 1 ON switch): -1; higher = weaker reporter binding
Settings: Eterna round: R95; input ligand: none
Please append the unit to your numeric answer.

{"columns": ["Record Sequence", "Measured On", "apparent KD of MS2 coat protein"],
 "data": [
  ["CCGAAUAAGUAGGAUAUCGUAUCGGAAACGAUACGAGAAGGGCUAACAUGAGGAUCACCCAUGUUCCUUAACGG [Fiskers Ex 6 - 16] (puzzle: Exclusion 6)", "MS2 coat protein", "0.0187 µM"],
  ["UUGGUUAUCUAUGGGAGUAACAUGAGGAUCACCCAUGUAUGUCUUGUUUUUUGUUCGUCAUAGGCCUUUUGUUUGGA [JR_SV3TOV1_Sub024] (puzzle: Sensor v3, turn-off variant 1)", "MS2 coat protein", "0.0298 µM"]
]}

Attention now turns to another entry.
Reported apparent KD of MS2 coat protein ( AUUGAUAUUGAGGAUAUGCUUUUAUUUGUACUAGCAGAAGGCGAUACAUGAGGAUCACCCAUGUUUAUGGAAGU [JR_E6_Sub088] (puzzle: Exclusion 6) ) = 0.0294 µM

----------
System: MS2 coat protein
Assay: apparent KD of MS2 coat protein; designed switch direction (-1 OFF switch, 1 ON switch): 1; higher = weaker reporter binding
Conditions: input ligand: FMN 200 uM
Please enter Y where apparent KD of MS2 coat protein is greater than or equal to 40 nM, and N where it is lower.

{"columns": ["Record Sequence", "Answer Label"],
 "data": [
  ["UGGUACAUGGGAGGAUAUCAUGUAGAAACAUGAGGAUCACCCAUGUAGGUGGCCGGUAACCGGAAUGAGAAGGCCCAUGUACCU [JL SSNG1 3.62] (Eterna round: R96, puzzle: Same State NG 2)", "Y"],
  ["GUAGCAUACCGAGGAUAUUCAUAUACAUGAGGAUCACCCAUGUUUAUAGGCCGAUUACGGCCUUGGGAGAAGGCGGAAUGCUAC [Xeonanis - 20 Mod25] (Eterna round: R96, puzzle: Same State NG 2)", "N"],
  ["UUAAUGAUGUAAGGAUAUACAUGAGGAUUUCUCGUAGAAGGUACAGGACAUGAGGAUCACCCAUGUGUCGCUCCGUAGAGCGUA [JL SSNG1 1.08] (Eterna round: R96, puzzle: Same State NG 1)", "Y"]
]}

We now examine a further sequence.
Does apparent KD of MS2 coat protein meet or surpass 40 nM for GAUCGUUUGAUAGGAUAUCGCUAUACAUGAGGAUCACCCAUGUUUACCACGCUGGUUUUUCAUACCGAGAAGGAUUCUGAUGAC [salish99_SSNG02_r04_007] (Eterna round: R96, puzzle: Same State NG 2) ? N

----------
Tested on: MS2 coat protein
Test: apparent KD of MS2 coat protein; designed switch direction (-1 OFF switch, 1 ON switch): -1; higher = weaker reporter binding
Conditions: input ligand: FMN 200 uM
Measurement Label: apparent KD of MS2 coat protein (µM)
Just the number in µM, nothing appended.

{"columns": ["Record Sequence", "Uom", "apparent KD of MS2 coat protein"],
 "data": [
  ["UUGGUUGUGGUAGGAUAUCCGUUGGAAACCGUCGGAGAAGGACCACAGUCACUGGGUCUUUGUCUGGUGGACUGGAAUCACCAU [pwkr exNG1 F6.21] (Eterna round: R96, puzzle: Exclusion NG 1)", "µM", 0.295],
  ["ACCUCACAUGAGGAUCACCCAUGUCAGGAUAUCUAAUAUUGCAGCGUUCCCGACGCUGAGAGAAGGGACAUUAA [EX1 #30] (Eterna round: R97, puzzle: Exclusion 1)", "µM", 0.0296],
  ["UGGCUACAUGAGGAUCACCCAUGUCAGGAUAUGCCGUUAAAUUGACAUCAACGUACGGGUAGAAGGGACUGCGU [1st #8] (Eterna round: R97, puzzle: Exclusion 1)", "µM", 0.0432],
  ["UAUGUGUCAGGAUAUUAAUUAUAGGAGAAUGUGACGAUGAUUAAGAAGGGACAUGAGGAUCACCCAUGUUCAUC [JR_Ex4_Sub025] (Eterna round: R97, puzzle: Exclusion 4)", "µM", 0.0213],
  ["GCUGGUCAAGGAUAUACAUGAGGAUCACCCAUGUGAUUAGCAGUCCUCGGACUGCAAUGUAGAAGGUGACCAGC [E3/2-C1] (Eterna round: R97, puzzle: Exclusion 3)", "µM", 1.41]
]}

Reported apparent KD of MS2 coat protein ( AUAAGUAUAUAGGAUAUCUAGCUGGAAACAGCUAGAGAAGGAUGUACAUGAGGAUCACCCAUGUAAAUCAAUAG [Ex6/8-A2] (Eterna round: R97, puzzle: Exclusion 6) ) = 0.0179

Reported apparent KD of MS2 coat protein ( UAAAUGUCAGGAUAUUGUUAAUUUAGUUGUUUGUAUUAGUUCGAGAAGGGACAUGAGGAUCACCCAUGUUAAAU [Ex4 #53] (Eterna round: R97, puzzle: Exclusion 4) ) = 0.0459

----------
Tested on: MS2 coat protein
Test: apparent KD of MS2 coat protein; designed switch direction (-1 OFF switch, 1 ON switch): -1; higher = weaker reporter binding
Details: input ligand: microRNA oligo, concentration not stated
Measurement Label: apparent KD of MS2 coat protein (nM)
Just the number in nM, nothing appended.

{"columns": ["Record Sequence", "apparent KD of MS2 coat protein [nM]"],
 "data": [
  ["UUGCAGUCGUCAGGAUAUAGUAUUACGGCCAUUUAUAUUUUCAUACAUGAGGAUCACCCAUGUCGCUAGAAGGGAUUAUCGAUU [salish99_ExNG2_r04_101] (Eterna round: R96, puzzle: Exclusion NG 2)", 40.4],
  ["AGUUGGCGAGGAUAUACAUGAGGAUCACCCAUGUAAAAAAAAAAAAAAAAAACUUCAUGUAGAAGGCGCUGACA [Starry Exclusion 3.4 (biggestlegoheroicafanever round 1 mod)] (Eterna round: R96, puzzle: Exclusion 3)", 200]
]}

Reported apparent KD of MS2 coat protein ( UGAGCUUACGCAGGAUAUGAGGAUCACCCAUAGAAGGAUAUCGAAAGAGAAGGUCUGAGGAUUACCCAGAAGGGCGUGGGCUCU [pwkr exNG2 2xF5 2xFMN.11] (Eterna round: R96, puzzle: Exclusion NG 2) ) = 125

Reported apparent KD of MS2 coat protein ( ACAUGAGGAUCACCCAUGUGAAAAGAAUGGCUGACACAGAGUUAGGAUAUGCGUGCAUAUCUAACGCAGAAGGGACAUGACUGG [Deportation 82 - Jieux - Exclusion NG 3] (Eterna round: R96, puzzle: Exclusion NG 3) ) = 33.9

----------
In this section, each of the sequences is paired with its reported apparent KD of MS2 coat protein.
System: MS2 coat protein
Assay: apparent KD of MS2 coat protein, switch OFF state (with FMN for OFF switches, without FMN for ON switches); designed switch direction (-1 OFF switch, 1 ON switch): -1; higher = weaker reporter binding
Settings: FMN input: 0 or 200 uM; Eterna round: R93 (includes R88 designs)
Just the number in nM, nothing appended.

Reference set (3 entries):
{"columns": ["Record Sequence", "Data Value"],
 "data": [
  ["AAGAACUGAGGAUAUACAAAAUAAAAGAAAAGAAAGAAAGAACAUGAGGAUCACCCAUGUAGAAGGCGGAAGAA [Wahibre Ibiau]", 29.1],
  ["AGAAAGUCAGGAUAUGCAGAAAAAAAAACGAAAAAAAAACUGCAGAAGGGACAUGAGGAUCACCCAUGUUAAAG [Mat - Exclusion 4 - Mayanna - D129]", 34.9],
  ["AAAACGGCAGGAUAUACAAUUGAGAACUAGAUCGAAAAAAAACAUGAGGAUCACCCAUGUAGAAGGGCCAAAAA [Ex2 Malc#9]", 55.3]
]}

Reported apparent KD of MS2 coat protein ( AAACCACAUGAGGAUCACCCAUGUCAGGAUAUGAACGAAAUAAAAUAAAAAUAAAAGUUCAGAAGGGACAAAAA [Mat - Exclusion 1 - Eli mod - D16] ) = 48.7

Reported apparent KD of MS2 coat protein ( GAAAAGUGAGGAUAUACUUUGGGAAAAGAAAAGAUGAUGUUACAUGAGGAUCACCCAUGUAGAAGGCACAAAAA [Mat - Exclusion 2 - Mod - D155] ) = 38.1

Reported apparent KD of MS2 coat protein ( AAAAAACAUGAGGAUCACCCAUGUGAGGAUAUGCAAUAAAAAAUAAAAAUAAAACAUAGCAGAAGGCACACCAA [Amethyst 58] ) = 31.8

----------
Test system: MS2 coat protein
Assay: apparent KD of MS2 coat protein; designed switch direction (-1 OFF switch, 1 ON switch): 1; higher = weaker reporter binding
Details: input ligand: FMN 200 uM
Measurement Label: apparent KD of MS2 coat protein (nM)
Just the number in nM, nothing appended.

Reference set (8 entries):
{"columns": ["Record Sequence", "apparent KD of MS2 coat protein, nM"],
 "data": [
  ["AGGGUCGUGCUAGGAUAUCUAGGAUAUGGACGAGGAUUACCCGAGCAGCAUUAGCGCACCAGAGGAGAGAAGGAGCGUGAUGCG [pwkr ssNG2 2F5 2FMN.10] (Eterna round: R96, puzzle: Same State NG 2)", 329],
  ["AUAAGAAACACAGGAUAUACCGCACUUAACACGGUAGAAGGGUGGGACAUGAGGAUCACCCAUGUGGUCCGGGCGCCGGACCGC [Geenusrior] (Eterna round: R96, puzzle: Same State NG 1)", 711],
  ["GUAGCAUACCGAGGAUAUUCAUAUUAACAUGAGGAUCACCCAUGUUGGCCACAUUAGUGGCCUUGGGAGAAGGCGGAAUGCUAC [Xeonanis - 20 Mod38] (Eterna round: R96, puzzle: Same State NG 2)", 19.6],
  ["UGGUACAUGGGAGGAUAUCAUGCAAACAUGAGGAUCACCCAUGUAACCAUGGAGACAUGGAUAUAUGAGAAGGCCCAUGUACCU [JL SSNG1 3.51] (Eterna round: R96, puzzle: Same State NG 2)", 11],
  ["GGCGCCGGCGCAGGAUAUAAUAGCACCAACAAAUUAGAAGGGUGUCUGACUUAAACAUGAGGAUCACCCAUGUGCGCCACAAAA [Eternabot solution 2] (Eterna round: R96, puzzle: Same State NG 1)", 198],
  ["GUGGCGGGUUGAGGAUAUUGGUUGCCGCUGUUUUACAUGAGGAUCACCCAUGUGGGUUGCGGUUUCGAGAAGGGCGGUUGCUGG [salish99_SSNG2_r04_056] (Eterna round: R96, puzzle: Same State NG 2)", 18.2],
  ["GAAAUAUAACAUGAGGAUCACCCAUGUACAUUGGUACGGCGGAAGGAUAUGAAAGACAUGGUCAAUUAGAAGGUCCUAUCAAAA [Eternabot solution 50] (Eterna round: R96, puzzle: Same State NG 3)", 102],
  ["GUAGCAUACCGAGGAUAUUCAUAUAAUAACAUGAGGAUCACCCAUGUUUAUAGGCGAAAGCCUUGGGAGAAGGCGGAAUGCUAC [Xeonanis - 20 Mod63] (Eterna round: R96, puzzle: Same State NG 2)", 10.4]
]}

Reported apparent KD of MS2 coat protein ( ACAUGAGAGAAAGGAUAUCUUGUACCUACAUGUGACAUGAGGAUCACCCAUGUGGUAAGUAUGACAGAGAAGGUUCAGAUAUGU [Equivalance 71 - Jieux - Same State NG 2] (Eterna round: R96, puzzle: Same State NG 2) ) = 38.7
